Reference for the values: ChEMBL document CHEMBL1201862

Biological target: DNA dC->dU-editing enzyme APOBEC-3G (Homo sapiens, UniProt Q9HC16)
Sequence (Q9HC16 whole entry): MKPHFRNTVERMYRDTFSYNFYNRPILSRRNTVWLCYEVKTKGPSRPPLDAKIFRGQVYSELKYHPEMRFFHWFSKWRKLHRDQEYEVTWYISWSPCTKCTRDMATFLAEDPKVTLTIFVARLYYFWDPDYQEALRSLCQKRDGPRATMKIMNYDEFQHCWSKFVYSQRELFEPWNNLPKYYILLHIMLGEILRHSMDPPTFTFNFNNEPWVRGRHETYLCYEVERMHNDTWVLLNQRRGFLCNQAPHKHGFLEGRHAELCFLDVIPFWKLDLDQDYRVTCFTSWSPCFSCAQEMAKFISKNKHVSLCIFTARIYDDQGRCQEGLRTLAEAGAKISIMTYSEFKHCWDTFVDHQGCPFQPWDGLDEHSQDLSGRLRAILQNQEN
Experiment: APOBEC3G deaminase inhibitors, SAR follow-up, biochemical, fluorescence, single-stranded DNA substrate (AID 602136)
Type: functional
Conditions: read-out: IC50_Mean
Active and inactive are the calls of the source. Cut-off read from the data, not from the text of the source: active = IC50 of 10 µM or less and inactive = more.
Select the correct class. Options are active, inactive and nothing else.

Before answering, review these 4 worked examples.
Qu. Could you please tell me the result logged for C#CCSc1nnc(-c2cc3c(C(F)(F)F)nn(C)c3s2)n1C in this assay?
Ans. inactive

Qu. Could you please tell me the result logged for CCn1ncc(-c2ccnc3cc(C(=O)O)nn23)c1C in this assay?
Ans. inactive

Qu. Could you please tell me the result logged for Nn1c(-c2cccc(Br)c2)n[nH]c1=S in this assay?
Ans. active

Qu. Could you please tell me the result logged for Cc1ccc(-c2csc3n[nH]c(=S)n23)cc1 in this assay?
Ans. active

Turning to the following molecule.
Qu. Could you please tell me the result logged for O=C(c1nn2c(C(F)(F)F)cc(-c3ccc(Cl)cc3)nc2c1Cl)N1CCCC1 in this assay?
Ans. inactive
